meta.source: patent US20070172421A1

readout-kind: melting point

compound: Cc1ccc([C@@H]2C[C@H](CN3CCCCC3)C(=O)N2C)cc1C.Cl [Example A1]
readout-value: 143 to 147 °C
//
compound: Cc1ccc([C@@H]2C[C@H](CN3CCCCC3)C(=O)N2C)cc1C.Cl [Example A2]
readout-value: 138 to 142 °C
//
compound: CN1C(=O)[C@@H](CN2CCCCC2)C[C@H]1c1cnc(-c2ccccc2Cl)s1.Cl [Example F1]
readout-value: 178 to 183 °C
//
compound: CN1C(=O)[C@@H](CN2CCCCC2)C[C@H]1c1ccc2c(c1)CCCC2.Cl [Example A5]
readout-value: 208 to 210 °C
//
compound: CN1C(=O)[C@@H](CN2CCCCC2)C[C@H]1c1ccc(-c2cccc(Cl)c2)s1.Cl [Example E10]
readout-value: 155 to 158 °C
//
compound: CN1C(=O)[C@@H](CN2CCCCC2)C[C@H]1c1ccc(Br)s1 [Example E1]
readout-value: 69 to 71 °C

Quick one: melting point of CN1C(=O)[C@@H](CN2CCCCC2)C[C@H]1c1ccc(-c2ccccc2Cl)cc1.Cl [Example H2] ?
134 to 139 °C

How about this compound: Cc1cccc(C#C[C@@H]2C[C@H](CN3CCCCC3)C(=O)N2C)c1.Cl [Example D2]
169 to 172 °C
